Consider the following molecules and their measured GI50 readings.
system: KM-20L2; assay: NCI tumour cell line growth inhibition, 48 h
Active and inactive are the calls of the source. Rule as the data show it: active = GI50 up to about 1.1 µM and inactive = higher.

{"columns": ["molecule", "GI50"],
 "data": [
  ["O=C1O/C(=C(/c2ccc(Cl)cc2)c2nc3ccccc3[nH]2)C(O)=C1c1ccc(Cl)cc1", "2.38 µM (inactive)"],
  ["Cc1cc(C)nc(NS(=O)(=O)c2ccc(NC(=O)c3cccc4c(Nc5ccc(S(=O)(=O)N=C(N)N)cc5)c5ccccc5nc34)cc2)n1", "34.2 µM (inactive)"],
  ["C1CCNCC1.S=C(S)N1CCCCC1", "100 µM (inactive)"],
  ["Oc1ncc(N(CCCl)CCCl)c(O)n1", "69.5 µM (inactive)"],
  ["COC1(OC)CC2C(=O)N(Cc3ccccc3)C1C=C2S(=O)(=O)c1ccccc1 (configuration not stated)", "18.8 µM (inactive)"],
  ["COc1cc2c(cc1OC)C(C#N)(Cc1ccccc1)N(C(=O)c1ccccc1)C=C2 (configuration not stated)", "67.3 µM (inactive)"],
  ["CCN(CC)c1c(C)c(C(=O)OC)nn1-c1ccccc1", "> 100 µM (inactive)"],
  ["ClC1=C(Cl)C(Cl)(Cl)c2c3c(c4c(c21)C(Cl)(Cl)C(Cl)=C4Cl)C(Cl)(Cl)C(Cl)=C3Cl", "> 100 µM (inactive)"],
  ["CN(C)CC1CCC/C1=N\\O (configuration not stated)", "> 100 µM (inactive)"],
  ["CC(C)(C)NC(=O)NC12CC3CC(CC(F)(C3)C1)C2", "> 100 µM (inactive)"],
  ["CC(O)c1ccc(C(O)/C(=N\\NC(=O)c2ccncc2)c2nc3ccc([N+](=O)[O-])cc3nc2O)cc1 (configuration not stated)", "33.3 µM (inactive)"],
  ["CS/C(=N/C(=O)c1ccccc1)SCCS/C(=N\\C(=O)c1ccccc1)SC", "> 100 µM (inactive)"],
  ["COC(=O)C1=C(SC)SC2(C(=O)OC)C3C=C(C)C4C(N13)C42C(=O)OC (configuration not stated)", "> 100 µM (inactive)"],
  ["CN(C)C(=O)NC(=S)N(C)C", "> 100 µM (inactive)"],
  ["CCc1cccc(C)c1N1C(=O)C(=O)C(c2nc3ccccc3o2)/C(=N/NC(=S)NN)C1=O (configuration not stated)", "> 100 µM (inactive)"],
  ["CC(=O)Nc1ccc(C2=N/C(=C\\c3ccc(Cl)c(Cl)c3)C(=O)O2)cc1", "> 100 µM (inactive)"],
  ["CC(C)c1cccc(C(C)C)c1N1C(=O)C(=O)C(c2nc3ccccc3o2)C(=O)C1=O", "79.1 µM (inactive)"],
  ["O=C(N/C(=C\\c1cccc([N+](=O)[O-])c1)c1nc2ccccc2[nH]1)c1ccccc1", "43.8 µM (inactive)"],
  ["COc1ccc(C(=O)C(c2ccc(OC)cc2)C2(O)C(=O)Nc3c2ccc(Cl)c3C)cc1 (configuration not stated)", "> 100 µM (inactive)"],
  ["CCc1ccc(/C(C)=N/NC(N)=S)cc1", "> 100 µM (inactive)"],
  ["N#CC(/C(=N\\NC(=O)c1ccncc1)C(=O)Nc1ccc([N+](=O)[O-])cc1[N+](=O)[O-])c1nc(-c2ccc(Br)cc2)cs1 (configuration not stated)", "> 100 µM (inactive)"],
  ["O=C(Cc1nc2ccccc2o1)C(=O)Nc1ccc(Cl)cc1Cl", "> 100 µM (inactive)"],
  ["COc1ccccc1N1C(Cl)C(=O)C1c1c[nH]c2ccccc12 (configuration not stated)", "> 100 µM (inactive)"],
  ["CC(=O)OC12c3ccccc3C1CCCCCC21OCCCO1 (configuration not stated)", "> 100 µM (inactive)"],
  ["CC(C)c1ccc(C2NC(S)=NC3=C2c2ccccc2C3=O)cc1 (configuration not stated)", "25.6 µM (inactive)"],
  ["O=C(/C=C/c1ccccc1F)C(c1ccccc1)c1ccccc1", "3.8 µM (inactive)"],
  ["CC(=O)Nc1ccc(-c2nnc(SCC(=O)Nc3ccc([N+](=O)[O-])cc3)o2)cc1", "14.4 µM (inactive)"],
  ["O=C(CCC(=O)Nc1ccc(Cl)c(Cl)c1)CC(=O)c1ccc(Br)cc1", "> 100 µM (inactive)"],
  ["COC1=CC(O)(CC(N)=O)c2ccccc2C1=O (configuration not stated)", "> 100 µM (inactive)"],
  ["C=CCNC(=O)ON1C(=O)CCC1=O", "> 100 µM (inactive)"],
  ["CC(=O)NC(CCCCNC(=O)OCc1ccccc1)C(=O)NCc1ccccc1 (configuration not stated)", "> 100 µM (inactive)"],
  ["N#C/C(=C\\c1ccccc1F)C(=O)c1ccccc1", "> 100 µM (inactive)"]
]}
